- system.under.test: Ah‐BarR T136A (P ah‐barR promoter, mKate2 reporter) (Acidianus hospitalis, UniProt F4B5V3, T136A)
- assay.method.text: cell-based
endpoint: EC50 (µM)
Dear colleague, please return just the value in µM, with no unit written.

Data request: Return EC50 for the following compound: NCCC(=O)O
Data returned: 960

----------
- system.under.test: Ah‐BarR M103T (P ah‐barR promoter, mKate2 reporter) (Acidianus hospitalis, UniProt F4B5V3, M103T)
- Sequence (F4B5V3 entry or part of it M103T): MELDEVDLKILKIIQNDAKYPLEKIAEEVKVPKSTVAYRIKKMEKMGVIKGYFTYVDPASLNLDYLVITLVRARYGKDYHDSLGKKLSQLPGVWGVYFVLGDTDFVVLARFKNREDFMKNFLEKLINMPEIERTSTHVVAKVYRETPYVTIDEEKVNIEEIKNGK
- assay.method.text: cell-based
- Protocol: Reporter gene assays were performed as previously described (Bernauw et al., [2022]). pPRC6 and pITC variants (Table 1) were co‐transformed in E. coli MG1655 chemical competent cells using heat shock transformation. […] Plates were incubated at 30°C and 300 rpm for 40 h in a Synergy H1 microplate reader (BioTek) with measurements of OD600 and fluorescence (excitation wavelength: 588 nm, emission wavelength: 633 nm) being taken every 20 min. […]
endpoint: pEC50
Reminder that pEC50 means the negative base-10 logarithm of the concentration expressed in mol/L.

Data request: Return pEC50 for the following molecule: NCCC(=O)O
Data returned: 3.49
